Tested on: Xenopus laevis
Assay: Anesthetic effect in Xenopus laevis assessed as loss of righting response
Format: functional, organism-based
Entries and their measured pEC50 follow.
pEC50 here: minus log base 10 of the concentration, concentration in moles per litre.

Please fill in: pEC50 reported for "C[C@@]12CC[C@H](O)C[C@H]1CC[C@@H]1[C@@H]2CC[C@@]2(C)C(=O)CC[C@@H]12" = 5.85

Please fill in: pEC50 reported for "C[C@]12CC[C@@H](O)C[C@@H]1CC[C@@H]1[C@@H]2CC[C@@]2(C)[C@H]1CC[C@@]21CO1" = 5.87

Please fill in: pEC50 reported for "CC(=O)[C@H]1CC[C@H]2[C@@H]3CC[C@H]4C[C@H](O)CC[C@]4(C)[C@H]3CC[C@]12C" = 6.38

Please fill in: pEC50 reported for "CC(=O)[C@H]1CC[C@H]2[C@@H]3CC[C@@H]4C[C@H](O)CC[C@]4(C)[C@H]3CC[C@]12C" = 7.22
